Biological target: human GLP-1R (Homo sapiens, UniProt P43220, G168S)
Sequence (P43220 24-463 G168S limits assumed): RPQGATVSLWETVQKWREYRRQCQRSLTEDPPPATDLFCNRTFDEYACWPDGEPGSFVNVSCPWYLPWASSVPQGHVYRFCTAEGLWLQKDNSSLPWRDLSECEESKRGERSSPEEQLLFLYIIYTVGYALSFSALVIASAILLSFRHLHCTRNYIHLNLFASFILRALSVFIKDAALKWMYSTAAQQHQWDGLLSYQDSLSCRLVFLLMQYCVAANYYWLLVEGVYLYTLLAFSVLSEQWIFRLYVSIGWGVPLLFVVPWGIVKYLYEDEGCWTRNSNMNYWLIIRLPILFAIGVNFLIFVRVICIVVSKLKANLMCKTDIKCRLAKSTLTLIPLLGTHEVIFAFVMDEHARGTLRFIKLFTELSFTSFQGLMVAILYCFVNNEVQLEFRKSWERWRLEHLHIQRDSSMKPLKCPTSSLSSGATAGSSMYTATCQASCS
Experiment: CHO GLP-1R Clone H6—Assay 1: HTRF cAMP cell-based functional agonist assay (high GLP-1R density)
Settings: read-out: Assay 1 Emax (%), CHO GLP-1R Clone H6; relative to saturating concentration of full agonist GLP-1 (1 μM); arithmetic mean
measured.quantity: Emax (%)

1) O=C(O)c1ccc2nc(CN3CCC(c4cccc(OCc5ccc(Cl)cc5F)n4)CC3)n(C[C@@H]3CCCO3)c2c1 [Example 10A-73]    78
2) N#Cc1ccc(COc2cccc(N3CCN(Cc4nc5ccc(C(=O)O)cc5n4C[C@@H]4CCO4)CC3)n2)c(F)c1 [Example 5A-01]    78
3) Cn1cnnc1Cn1c(CN2CCC(c3cccc(OCc4ccc(C#N)cc4F)n3)CC2)nc2ccc(C(=O)O)cc21 [Example 1A-20]    81
4) C[C@H]1CN(c2ccc(F)c(OCc3ccc(F)cc3F)n2)CCN1Cc1nc2ccc(C(=O)O)cc2n1C[C@@H]1CCO1 [Example 10A-56]    78
5) C[C@H]1CN(c2cccc(OCc3ccc(C#N)cc3)n2)CCN1Cc1nc2ccc(C(=O)O)cc2n1C[C@@H]1CCO1 [Example 10A-49]    73
6) O=C(O)c1ccc2nc(CN3CCC(c4cccc(OCc5ccc(Cl)cc5F)n4)CC3)n(C[C@H]3CCOC3)c2c1 [Example 10A-72]    79
7) O=C(O)c1ccc2nc(CN3CCC(c4cccc(OCc5ccc(Cl)cc5F)n4)CC3)n(Cc3ncon3)c2c1 [Example 10A-70]    65

###

Target: human GLP-1R (Homo sapiens, UniProt P43220, G168S)
Test: CHO GLP-1R Clone H6—Assay 1: HTRF cAMP cell-based functional agonist assay (high GLP-1R density)
Settings: read-out: Assay 1 Emax (%), CHO GLP-1R Clone H6; relative to saturating concentration of full agonist GLP-1 (1 μM); arithmetic mean
Each record here notes measured Emax.
measured.quantity: Emax (%)

1) Cn1cncc1Cn1c(CN2CCN(c3cccc(OCc4ccc(Cl)cc4F)n3)CC2)nc2ccc(C(=O)O)cc21 [Example 10A-36]    82
2) Cc1nnc(Cn2c(CN3CCC(c4cccc(OCc5ccc(Cl)cc5F)n4)CC3)nc3ccc(C(=O)O)cc32)o1 [Example 10A-29]    82
3) CO[C@H]1C[C@@H](Cn2c(CN3CCC(c4cccc(OCc5ccc(Cl)cc5F)n4)CC3)nc3ccc(C(=O)O)cc32)C1 [Example 1A-28]    92
4) O=C(O)c1ccc2nc(CN3CCC(c4cccc(OCc5ccc(Cl)cc5F)n4)CC3)n(CCO)c2c1 [Example 10A-50]    64
5) CN1CC(Cn2c(CN3CCC(c4cccc(OCc5ccc(Cl)cc5F)n4)CC3)nc3ccc(C(=O)O)cc32)C1 [Example 10A-19]    100
6) COCCn1c(CN2CCN(c3cccc(OCc4ccc(Cl)cc4F)n3)C[C@@H]2C2CC2)nc2ccc(C(=O)O)cc21 [Example 12A-04]    64
7) Cn1cncc1Cn1c(CN2CCC(c3cccc(OCc4ccc(Cl)cc4F)n3)CC2)nc2ccc(C(=O)O)cc21 [Example 11A-70]    86

###

Target: human GLP-1R (Homo sapiens (Human), UniProt P43220, L260F)
Sequence (P43220 24-463 L260F): as the sequence (P43220 24-463 G168S limits assumed) above, with S145G, L237F counted along it
Assay: CHO GLP-1R Clone C6—Assay 2: HTRF cAMP cell-based functional agonist assay (low GLP-1R density)
Conditions: CHO GLP-1R Clone C6, cAMP HTRF; geometric mean
Each record here notes measured EC50.
measured.quantity: EC50

1) Cn1cncc1Cn1c(CN2CCC(c3cccc(OCc4ccc(C#N)cc4F)n3)CC2)nc2ccc(C(=O)O)cc21    14 nM
2) O=C(O)c1ccc2nc(CN3CCC(c4cccc(OCc5ccc(Cl)cc5F)n4)CC3)n(CCC(F)(F)F)c2c1 [Example 11A-73]    5300 nM
3) C[C@H]1CN(c2cccc(OCc3ccc(Cl)cc3F)n2)CCN1Cc1nc2ccc(C(=O)O)cc2n1Cc1cocn1 [Example 10A-13]    170 nM
4) O=C(O)c1ccc2nc(CN3CCC(c4cccc(OCc5ccc(Cl)cc5F)n4)CC3)n(C[C@@H]3CCO3)c2n1    22 nM
5) C[C@H]1CN(c2cccc(OCc3ccc(Cl)cc3F)n2)CCN1Cc1nc2ccc(C(=O)O)cc2n1C[C@@H]1CCO1    3.2 nM
6) O=C(O)c1ccc2nc(CN3CCC(c4cccc(OCc5ccc(Cl)cc5F)n4)CC3)n(C[C@H]3CCO3)c2n1    190 nM
7) O=C(O)c1ccc2nc(CN3CCC(c4cccc(OCc5ccc(Cl)cc5F)n4)CC3)n(Cc3ccon3)c2c1 [Example 11A-69]    21 nM
8) COCCn1c(CN2CCN(c3cccc(OCc4ccc(Cl)cc4F)n3)C[C@H]2C)nc2ccc(C(=O)O)cc21 [Example 12A-11]    2100 nM
9) COCCn1c(CN2CCC(c3cccc(OCc4ccc(C)cc4)n3)CC2)nc2ccc(C(=O)O)cc21    1100 nM
10) COCCn1c(CN2CC[C@@H](c3cccc(OCc4ccc(Cl)cc4F)n3)[C@H](O)C2)nc2ccc(C(=O)O)cc21 (racemic)    1000 nM
11) COCCn1c(CN2CCC(c3cccc(OCc4ccc(Cl)cc4F)n3)CC2)nc2ccc(C(=O)O)c(F)c21    94 nM
12) C[C@H]1CN(c2cccc(OCc3ccc(C#N)cc3F)n2)CCN1Cc1nc2ccc(C(=O)O)nc2n1Cc1ncco1    220 nM
13) Cn1c(CN2CCC(c3cccc(OCc4ccc(Cl)cc4F)n3)CC2)nc2ncc(C(=O)O)cc21    150 nM
14) N#Cc1ccc(COc2cccc(C3CCN(Cc4nc5ccc(C(=O)O)cc5n4Cc4ccon4)CC3)n2)c(F)c1 [Example 10A-65]    35 nM

###

Target: human GLP-1R (Homo sapiens, UniProt P43220, G168S)
Assay: CHO GLP-1R Clone H6—Assay 1: HTRF cAMP cell-based functional agonist assay (high GLP-1R density)
Conditions: read-out: Assay 1 EC50; CHO GLP-1R Clone H6, cAMP HTRF; geometric mean
pEC50: −log10 of the molar value.
Each record here notes measured pEC50.
measured.quantity: pEC50

1) CCn1cncc1Cn1c(CN2CCC(c3cccc(OCc4ccc(Cl)cc4F)n3)CC2)nc2ccc(C(=O)O)cc21 [Example 10A-02]    9.47
2) COCCn1c(CN2CCN(c3cccc(OCc4ccc(Cl)cc4F)n3)C[C@@H]2C)nc2ccc(C(=O)O)cc21 [Example 12A-10]    8.16
3) Cc1n[nH]c(CCn2c(CN3CCC(c4cccc(OCc5ccc(Cl)cc5F)n4)CC3)nc3ccc(C(=O)O)cc32)n1 [Example 11A-66]    5.40
4) COCCn1c(CN2CC[C@@H](c3cccc(OCc4ccc(Cl)cc4F)n3)[C@H](F)C2)nc2ccc(C(=O)O)cc21 (racemic)    7.44

###

Molecular target: human GLP-1R (Homo sapiens (Human), UniProt P43220, L260F)
Experiment: CHO GLP-1R Clone C6—Assay 2: HTRF cAMP cell-based functional agonist assay (low GLP-1R density)
Details: CHO GLP-1R Clone C6; relative to saturating concentration of full agonist GLP-1 (1 μM); arithmetic mean; read-out: Assay 2 Emax (%)
measured.quantity: Emax (%)

1. CCn1nncc1Cn1c(CN2CCC(c3cccc(OCc4ccc(C#N)cc4F)n3)CC2)nc2ccc(C(=O)O)cc21 [Example 10A-69]    87
2. N#Cc1ccc(COc2nc(C3CCN(Cc4nc5ccc(C(=O)O)cc5n4C[C@@H]4CCO4)CC3)ccc2F)c(F)c1 [Example 10A-54]    100
3. COCCn1c(CN2CCC(c3ccc(F)c(OCc4ccc(Cl)cc4F)n3)CC2)nc2ccc(C(=O)O)cc21 [Example 1A-04]    82
4. COCCn1c(CN2CCN(c3cccc(OCc4ccc(C#N)cc4)n3)C[C@@H]2C)nc2ccc(C(=O)O)cc21 [Example 12A-08]    97
5. C[C@H]1CN(c2cccc(OCc3ccc(C#N)cc3F)n2)CCN1Cc1nc2ccc(C(=O)O)cc2n1Cc1cncn1C [Example 10A-25]    99
6. C[C@H]1CN(c2cccc(OCc3ccc(Cl)cc3F)n2)CCN1Cc1nc2ccc(C(=O)O)cc2n1C[C@@H]1CCO1 [Example 1A-19]    84
7. CCn1cncc1Cn1c(CN2CCC(c3cccc(OCc4ccc(Cl)cc4F)n3)CC2)nc2ccc(C(=O)O)cc21 [Example 10A-02]    97

###

Each record here notes measured log10(EC50).
Target: human GLP-1R (Homo sapiens, UniProt P43220, G168S)
Assay: CHO GLP-1R Clone H6—Assay 1: HTRF cAMP cell-based functional agonist assay (high GLP-1R density)
Conditions: read-out: Assay 1 EC50; CHO GLP-1R Clone H6, cAMP HTRF; geometric mean
measured.quantity: log10(EC50) (log10 of the value in nM)

1) Cn1c(CN2CCC(c3cccc(OCc4ccccc4OC(F)(F)F)n3)CC2)nc2ccc(C(=O)O)cc21 [Example 9A-10]    3.65
2) COCCCn1c(CN2CCC(c3cccc(OCc4ccc(Cl)cc4F)n3)CC2)nc2ccc(C(=O)O)cc21 [Example 11A-38]    2.08
3) CC(c1cnn(C)n1)n1c(CN2CCC(c3cccc(OCc4ccc(Cl)cc4F)n3)CC2)nc2ccc(C(=O)O)cc21 (centres unmarked) [Example 11A-60]    3.20
4) COCCn1c(CN2CCC(c3cccc(OCc4ccc(Cl)cc4F)n3)CC2)nc2ncc(C(=O)O)c(C)c21 [Example 2A-11]    2.32
5) COCCn1c(CN2CCC(c3cccc(OCc4c(F)cc(Cl)cc4F)n3)CC2)nc2ccc(C(=O)O)cc21 [Example 8A-04]    2.08
6) Cn1cnnc1Cn1c(CN2CCC(c3cccc(OCc4ccc(C#N)cc4F)n3)CC2)nc2ccc(C(=O)O)cc21 [Example 1A-20]    1.64
7) CCn1cncc1Cn1c(CN2CCC(c3cccc(OCc4ccc(F)cc4F)n3)CC2)nc2ccc(C(=O)O)cc21 [Example 10A-32]    -0.33
8) Cn1cncc1Cn1c(CN2CCC(c3cccc(OCc4ccc(C#N)cc4F)n3)CC2)nc2ccc(C(=O)O)cc21 [Example 1A-16]    0.18
9) O=C(O)c1ccc2nc(CN3CCC(c4cccc(OCc5ccc(Cl)cc5F)n4)CC3)n(C[C@H]3CCOC3)c2c1 [Example 10A-72]    0.53
10) CCn1nncc1Cn1c(CN2CCC(c3cccc(OCc4ccc(C#N)cc4F)n3)CC2)nc2ccc(C(=O)O)cc21 [Example 10A-69]    0.30
11) O=C(O)c1ccc2nc(CN3CCC(c4cccc(OCc5ccc(F)cc5F)n4)CC3)n(Cc3cnco3)c2c1 [Example 10A-44]    0.78
12) CC1(Cn2c(CN3CCC(c4cccc(OCc5ccc(Cl)cc5F)n4)CC3)nc3ccc(C(=O)O)cc32)CCOC1 (centres unmarked) [Example 11A-14]    0.91
13) O=C(O)c1ccc2nc(CN3CCC(c4cccc(OCc5ccc(Cl)cc5F)n4)CC3)n(Cc3nnc[nH]3)c2c1 [Example 11A-25]    1.48
